# Tested on: Vero E6 infected with SARS-CoV-2
# assay.overview: morphology score (similarity to uninfected cells); higher = more like uninfected cells
# conditions: 24 h
observation.type: morphology score
Give bare numbers.

Some solved cases for reference:
Problem: Reported morphology score, molecule O=C(NCc1ccc(Oc2ccccc2)cc1)c1nc(-c2cc(Br)c(O)c(Br)c2)no1 (0.833333 µM) : ____
Solution: 0.0493

Problem: Moving on to the next molecule: CCN(C(=O)c1c(O)c2c(Cl)cccc2n(C)c1=O)c1ccccc1 [laquinimod] (10 µM)
Solution: 0.168

Problem: // repeat for O=C(CN1C(=O)C2(CCCC2)NC[C@H]1c1cc(F)cc(F)c1)Nc1ccc2c(c1)C[C@@]1(C2)C(=O)Nc2ncccc21 (10 µM) and report
Solution: 0.0766

Problem: # repeat for CCn1c(-c2nonc2N)nc2cncc(C(=O)N3CC[C@H](N)C3)c21 (0.833333 µM)
Solution: 0.488

Now consider the entry below.
Problem: Using the record for CN(C(=O)Cc1ccccc1)[C@H](CN1CCCC1)c1ccccc1 (10 µM) , report its morphology score.
Solution: 0.0751

----------
# Test system: Vero E6 infected with SARS-CoV-2
# assay.overview: inhibition of SARS-CoV-2 cytopathic effect; higher = more antiviral protection, active = above 15
# conditions: 833.33 nM; 48 h
observation.type: inhibition of SARS-CoV-2 cytopathic effect (%)
One number for each entry, in %.

As a guide, the following entries are already answered.
Problem: # get_value(readout='inhibition of SARS-CoV-2 cytopathic effect', item= CN(C)CCN1C(=O)c2cccc3cc(N)cc(c23)C1=O [amonafide] )
Solution: 3.27

Problem: Same thing, different compound: Cc1c(C(=O)NN2CCCCC2)nn(-c2ccc(Cl)cc2Cl)c1-c1ccc(I)cc1
Solution: 1.67

For each entry beneath this line, provide reported inhibition of SARS-CoV-2 cytopathic effect.
1. N=C(N)NC(=N)Nc1ccccc1 [1-phenylbiguanide]
2. CC[C@H]1OC(=O)[C@H](C)C(=O)[C@H](C)[C@@H](O[C@@H]2O[C@H](C)C[C@H](N(C)C)[C@H]2O)[C@](C)(OC)C[C@@H](C)C(=O)[C@H](C)[C@H]2N(CCCCn3cnc(-c4cccnc4)c3)C(=O)O[C@]12C
3. O=C(CCCCC(=O)Nc1c(I)cc(I)c(C(=O)O)c1I)Nc1c(I)cc(I)c(C(=O)O)c1I [iodipamide]
4. O=C(O)c1cc2ccccc2s1
5. CNS(=O)(=O)Cc1ccc2[nH]cc(CCN(C)C)c2c1

Solution:
1. 1.34
2. 0.65
3. -3.34
4. -0.45
5. 0.28

Quick one: give me inhibition of SARS-CoV-2 cytopathic effect for each item below, same order please.
1. O=C1N=C2SCCN2C(=O)C1Cc1ccc(Cl)cc1 (configuration not stated)
2. CCCCCCCCCCCCOS(=O)(=O)O [dodecyl-sulfate]
3. CN(C)C(=N)NCCC[C@H](N)C(=O)O
4. COc1ccc(C(=O)Nc2c(Cl)cncc2Cl)cc1OC1CCCC1
5. COc1c(C)c(C(=O)c2ccc(N)c(C(=O)O)c2)n2ccccc12
6. O=c1oc(-c2ccc(C(F)(F)F)cc2)nn1Cc1cc(Cl)ccc1O
7. O=c1ccc2cc(O[C@@H]3O[C@H](CO)[C@@H](O)[C@H](O)[C@H]3O)c(O)cc2o1
8. OC[C@@H](O)[C@@H](O)[C@@H](O)CO

Solution:
1. 0.58
2. 0.175
3. 0.84
4. -2.24
5. -1.06
6. 3.7
7. -1.49
8. 3.1

Dear reader, for each entry below, please note its inhibition of SARS-CoV-2 cytopathic effect.
1. COc1nccc(-c2c(-c3ccc(F)cc3)ncn2[C@H]2CC[C@H](O)CC2)n1
2. COc1nc(C)cnc1NS(=O)(=O)c1cccnc1-c1ccc(-c2nnco2)cc1

Solution:
2.66
-3.56
